assay_details: xn = mol fraction of the nth substance listed
applied_conditions: 293.2 K; 101 kPa; Liquid; Taylor dispersion method; x1 = 0
measurement_name: binary diffusion coefficient (m2/s)

See these solved cases before continuing.
NC(CO)C(=O)O (centres undefined) [(.+-.)-serine] + O = 7.72e-10
NC(CCO)C(=O)O (stereo not drawn) [DL-2-amino-4-hydroxybutanoic acid] + O = 7.26e-10

[a] C[C@H](O)[C@H](N)C(=O)O [DL-allothreonine] + O
[b] C[C@@H](O)[C@H](N)C(=O)O [DL-threonine] + O
Input line: I'm curious whether a or b has the smaller binary diffusion coefficient number. Which is it? The response must carry the label of the picked entry.
Output line: a
(a: 6.97e-10 m2/s, b: 6.91e-09 m2/s)
